Source: ChEMBL document CHEMBL5046276

ASSAY_DETAILS: Cytotoxicity against HEK293T cells incubated for 72 hrs by CCK-8 assay
ASSAY_CONDITIONS: human
ASSAY_READOUT: log10 of IC50 at 72 h (log10 of the value in µM)
Recorded IC50 at 72 h (log10, µM)

Previously resolved entries follow.
Could you share which log10 of IC50 at 72 h value was measured for Cl.Cn1cc(CN2CC3(CCN(c4ncc(C(=O)NO)cn4)C3)C2)c2ccc(C#N)cc21 ?
0.08

What does the data say about its log10 of IC50 at 72 h? Entry: O=C(NO)c1cnc(N2CCC3(CN(Cc4ccc5ccccc5c4)C3)C2)nc1
0.64

Further cases:
What log10 of IC50 at 72 h value was documented for this molecule, O=C(NO)c1cnc(N2CCC3(CN(Cc4cncc5ccccc45)C3)C2)nc1 ?
0.91

Param item = COc1ccc2c(CN3CC4(CCN(c5ncc(C(=O)NO)cn5)C4)C3)cn(C)c2c1 ; retrieve measured log10 of IC50 at 72 h.
-0.15

Give the measured log10 of IC50 at 72 h of O=C(NO)c1cnc(N2CCC3(CN(Cc4ccco4)C3)C2)nc1 .
1.30

What value of log10 of IC50 at 72 h has been recorded for this entry: Cl.Cn1c(CN2CC3(CCN(c4ncc(C(=O)NO)cn4)C3)C2)nc2ccccc21
0.97

Fill in: log10 of IC50 at 72 h of O=C(NO)c1cnc(N2CCC3(CN(Cc4ccccc4)C3)C2)nc1 is ___
0.30

Look at this molecule and give its reported log10 of IC50 at 72 h. O=C(NO)c1cnc(N2CCC3(CN(Cc4c5ccccc5cc5ccccc45)C3)C2)nc1
-0.34

---

Overview of reported half-life across a group of compounds:
ASSAY_DETAILS: Metabolic stability in mouse liver microsomes assessed as half life at […] incubated for 45 mins in presence of NADPH by LC/MS analysis
Type: ADME, Microsome
ASSAY_CONDITIONS: liver microsomes

Record excerpt, results attached:
half-life lookup needed for Cl.Cn1c(CN2CC3(CCN(c4ncc(C(=O)NO)cn4)C3)C2)nc2ccccc21 , thanks.
2.23 h

Consider the compound Cl.O=C(NO)c1cnc(N2CCC3(CN(Cc4cnc5ccccc5c4)C3)C2)nc1 and give its measured half-life.
0.222 h

I am curious: what half-life value has been reported for Cl.Cn1cc(CN2CC3(CCN(c4ncc(C(=O)NO)cn4)C3)C2)c2ccc(C#N)cc21 ?
1.34 h

---
Record request: half-life value, item Cl.Cn1cc(CN2CC3(CCN(c4ncc(C(=O)NO)cn4)C3)C2)c2ccc(Br)cc21
6.64 h

---

SUBJECT_OF_TEST: UniProt O15379
Sequence (O15379 whole entry): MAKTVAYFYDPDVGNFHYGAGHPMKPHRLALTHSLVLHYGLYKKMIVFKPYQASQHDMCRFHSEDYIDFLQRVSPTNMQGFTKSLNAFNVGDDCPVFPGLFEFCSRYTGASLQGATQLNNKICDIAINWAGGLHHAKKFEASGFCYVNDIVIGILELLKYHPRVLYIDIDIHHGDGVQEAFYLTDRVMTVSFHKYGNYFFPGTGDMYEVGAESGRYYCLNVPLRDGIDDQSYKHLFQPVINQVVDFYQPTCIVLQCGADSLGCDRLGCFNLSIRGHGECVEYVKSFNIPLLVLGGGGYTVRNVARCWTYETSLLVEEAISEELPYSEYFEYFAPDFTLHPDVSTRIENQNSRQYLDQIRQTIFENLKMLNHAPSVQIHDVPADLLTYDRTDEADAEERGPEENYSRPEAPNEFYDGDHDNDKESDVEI
ASSAY_READOUT: IC50 (nM)
State the answer as a number, implicitly in nM.

I'd like to know its IC50. The compound in question is Cl.Cn1cc(CN2CC3(CCN(c4ncc(C(=O)NO)cn4)C3)C2)c2ccc(C#N)cc21
5.2

---

selectivity ratio reference
ASSAY_DETAILS: Selectivity index, ratio of IC50 for cytotoxicity against human HepG2 cells to IC50 for antimalarial activity against asexual blood stage wild-type Plasmodium falciparum 3D7
Type: toxicity, cell-based
ASSAY_CONDITIONS: read-out: Ratio IC50
# respond with the number and nothing more

Given O=C(NO)c1cnc(N2CCC3(CN(Cc4ccccn4)C3)C2)nc1 , state its recorded selectivity ratio.
188

---
Return reported selectivity ratio; argument: O=C(NO)c1cnc(N2CCC3(CN(Cc4ccc5ccccc5c4)C3)C2)nc1
215

Which selectivity ratio value is on record for Cc1ccc2c(CN3CC4(CCN(c5ncc(C(=O)NO)cn5)C4)C3)cn(C)c2c1 ?
112

Looking for the measured selectivity ratio of O=C(NO)c1cnc(N2CCC3(CN(Cc4cccnc4)C3)C2)nc1 , can you help?
243

Fill blank: measured selectivity ratio of the compound O=C(NO)c1cnc(N2CCC3(CN(Cc4cc5ccccc5s4)C3)C2)nc1 is ____.
625
